Assay Summary: AUClast in Sprague-Dawley rat at 10 mg/kg, po by LC-MS/MS analysis
Type: ADME, organism-based
Design: dose 10 mg/kg, route oral, time 0 - last
Assay Conditions: in vivo
Test Readout: AUC(0-t)

Cc1ccc(C(C)C)cc1NC(=O)Cn1c(Cc2c(Cl)cccc2Cl)nc2ccccc21	128 ng·h/mL

---

Assay Summary: AUClast in Sprague-Dawley rat at 10 mg/kg, iv by LC-MS/MS analysis
Type: ADME, organism-based
Design: dose 10 mg/kg, route intravenous, time 0 - last
Assay Conditions: in vivo
Test Readout: AUC(0-t) (ng·h/mL)

Cc1ccc(C(C)C)cc1NC(=O)Cn1c(Cc2c(Cl)cccc2Cl)nc2ccccc21	1750

Cited source: ChEMBL document CHEMBL3877298
